Listing of entries alongside the reported apparent KD of K4 kissing-loop reporter.
- Tested on: K4 kissing-loop RNA reporter;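 further: bound reporter read as fluorescence of individual clusters on recovered sequencing chips by microscopy, with normalized cluster intensities fitted with a binding model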
- assayComment: apparent KD of K4 kissing-loop reporter; higher = weaker reporter binding
- assayContext: Eterna round: R107; input ligand: none
testReadout: apparent KD of K4 kissing-loop reporter

UAUUUGAUGUCAGGAUAUCGUAUACGAGUGAUGUUCGUAUUUCUACUAUAGAUUAUUUAAAUUUUUCGAGAAGGGACAACAUUUA [#04 K4 FMN B Same State]	115 nM
GAGUUUCGUAAAGGAUAUUCUAGCUAAAGCCAUUAGUGAUGUUGAUGUACGGACGGAAGCCUGGCAGAAGAAGGUUAACAGGAUU [theeternabot_sameState_KL_FMN_B_24]	410 nM
GAUCUAUGUCCCGAUACCAGCUCAGAAGCUAGGGAGUGAUGUUCUCGGAGGUUAUCACUGAGCCCUUGGCAGCGGAACGUGACGA [theeternabot_sameState_KL_Theo_B_26]	239 nM
AGAUGACACCGAGGAUAUCCUAAUAUGGGUGAUGUUAGCGAUGUUGAAGGUGUAGUGAUGUUAUGCGGAGAAGGCGGUGUUGUUU [BDazzled - #21 - Exc. FMN B]	216 nM
CCCAAAAUAUGCAGUGAUGUUGCAACCGAUACCAGUAUCGAAAGAUACCCUUGGCAGCGGAAAACCGCUACGUAAUUUAAAAGGG [Ex Theophylline A K4 17]	311 nM
